The reported numbers originate from the DeepSol protein solubility set.

- Test: soluble on expression in E. coli; label from the status in PepcDB or PDB records
Parameter: soluble on expression in E. coli

| Chain | Result |
| --- | --- |
| MKKDLISVVMSAYNSEKFISDSISSILDQTYENWELIIINDASSDNTLKIVNQFSEKDPRIKVIDNENNLGLTISLNIGINNSKGEFIARLDSDDFAEPSRLEKELDHLHAYPEAGLVGSGAHLINSSGNKIGSMNVMSQPYFVNRFLINLNPFIHSSIMVRKKALDNVGSYREKFRYSQDYDLILRLSDKYKLSNIALPLIRWRVSDSSVTMQHHTLQRIYADIAREFAIERRNSGHDSYESTEFDTLIHEMRIRNQGRYLCDHGVYDLLFNKKYKEGCSELIKGISKGGFPYNSFYRGITQVISKVNIQLEHHHHHH | not soluble |
| MANELATEGASGVDAPRIGPRLKAARQAQRLTLDDLAASCGITKGYLSKIERDHASASVATLVRICAALNIPVGSLFESSAAGEVVRADNYPPISFGGERMAEFLLTPFGERRIQSLLSRIEPGGGSGSETYELPVDVAFVYVVSGRICISFNGPGAGEDVSLATGDAFTFSPQLPHSFRALGDDTATVLWILTPALPDDVRPTSR | not soluble |

----------
- Test: soluble on expression in E. coli; label from the status in PepcDB or PDB records

| Chain | soluble on expression in E. coli |
| --- | --- |
| MNTQFSCVGCGKCCNDHHVPLTLLEARDWAADGGQVIILVEAFLGNGLGLPMQQREHAERRSCRVRSGATEAYVAITFAAYNVGPCRNLDEDQLCRIYQRRPLVCRIYPMEINPHIPLNPQAKECPPESWEQGPQLILGNELVDQELAELIRRSRQADRDDIHTKEAICALLGIRTTALKGDGFTAYLPDMGALANAIDQVQAAPPGAPGQPWRFHLSGDDIAGQVQAAGAQVVSETPLDYAFISLRAALEHHHHHH | soluble |
| GMAEKQYDFTHVPKRQGNSIKWGVLKEKELPMWIAEMDFKIAPEIMASMEEKLKVAAFGYESVPAEYYKAVADWEEIEHRARPKEDWCVFASGVVPAISAMVRQFTSPGDQILVQEPVYNMFYSVIEGNGRRVISSDLIYENSKYSVNWADLEEKLATPSVRMMVFCNPHNPIGYAWSEEEVKRIAELCAKHQVLLISDEIHGDLVLTDEDITPAFTVDWDAKNWVVSLISPSKTFNLAALHAACAIIPNPDLRARAEESFFLAGIGEPNLLAIPAAIAAYEEGHDWLRELKQVLRDNFAYAREFLAKEVPEVKVLDSNASYLAWVDISALGMNAEDFCKYLREKTGLIISAGNGYRGNGHEFVRINLACPKELVIDGMQRLKQGVLNLNN | soluble |

----------
- Test: soluble on expression in E. coli; label from the status in PepcDB or PDB records

| Chain | soluble on expression in E. coli |
| --- | --- |
| MAHHHHHHMYRNLFDKLKDGPLKISILGSGNWASAISKVVGTNAKNNYLFENEVRMWIRDEFVNGERMVDIINNKHENTKYLKGVPLPHNIVAHSDLASVINDADLLIFIVPCQYLESVLASIKESESIKIASHAKAISLTKGFIVKKNQMKLCSNYISDFLNIPCSALSGANIAMICGALKNIITLACGFCDGLNLPTNSKSAIIRNGINEMILFGKGTVTLKYVYHMIKEKNMTNEFPLFTVLHKISFENEDPSSLLKTFMNNKINQLNL | not soluble |
| MGSDKIHHHHHHMSTNISWTDETINPIVGCSRISAGCQNCYASTAAASARLQQFPQYQKVKDWNGTVEFAESALLKPLSWKKPKRIFVCSMSDLFHENVPDQWRDRVFGIMAAAHWHIFQVLTKRPLNALKYFQNFNLAQRIKDAGNLVCKPELPLKNVWFGVTCENQEMADKRIPILLQIPAKVRFLSCEPLLEEIDLSEVFGLYEYEEGKFALKVGSRWESSPDWVIVGGESGKDARVCHIDWVRSLTRQCQAAEVPVFVKQLGSNCIESLPYIAGVPSTDYQFKTSDRKGGDISEFPEDLQVRKFPDIHKTR | not soluble |
| MTEEIAGFQTSPKAQVQAAFEEIARRSMHALSFLHPSMPVYVSDFTLFEGQWTGCVITPWMLSAVIFPGPDQLWPLRKVSEKIGLQLPYGTMTFTVGELDGVSQYLSCSLMSPLSHSMSIEEGQRLTDDCARMILSLPVTNPDVPHAGRRALLFGRRSGENA | not soluble |
